assay: Ratio of drug level in brain to plasma in mdr1a deficient CF-1 mouse at 30 mg/kg, ip after 30 mins; format: ADME, organism-based; parameters: dose 30 mg/kg, route intraperitoneal; settings: CF-1 (mdr1a deficient)
recorded-metric: Kp at 0.5 h

> print(dat)
                            smiles.record  recorded.metric  observed.value
1  Cc1nc(SCc2cc(N3CCOCC3)cc(NCC#N)n2)sc1C      Kp at 0.5 h             0.9

----------
experiment: Plasma concentration in C57BL/6 mouse plasma at 30 mg/kg, ip after 30 mins; assay type: ADME, organism-based, C57BL6; parameters: dose 30 mg/kg, route intraperitoneal
recorded-metric: concentration at 0.5 h

> print(dat)
                            smiles.record         recorded.metric  observed.value
1  Cc1nc(SCc2cc(N3CCOCC3)cc(NCC#N)n2)sc1C  concentration at 0.5 h          3.4 µM

Reference source: ChEMBL document CHEMBL1152970
